- Test system: Staphylococcus aureus
- METHOD NOTES: Antibacterial activity against Staphylococcus aureus ATCC 25923 at 40 ug/ml after 48 hrs by filter paper disc method
- Type: functional
- MEASUREMENT SETUP: ATCC 25923, 48 h, read-out: IZ
QUANTITY: zone of inhibition at 40 µg/mL

[[record]]
compound = "COc1ccc(NC(=O)Nc2sc3ccccc3c2Cl)cc1"
system_under_test = "Staphylococcus aureus"
quantity = "zone of inhibition at 40 µg/mL"
observed_measurement = "15 to 16 mm"

[[record]]
compound = "Cc1cccc(NNC(=O)Nc2sc3ccccc3c2Cl)c1"
system_under_test = "Staphylococcus aureus"
quantity = "zone of inhibition at 40 µg/mL"
observed_measurement = "15 to 16 mm"

[[record]]
compound = "O=C(NNc1ccc(F)cc1)Nc1sc2ccccc2c1Cl"
system_under_test = "Staphylococcus aureus"
quantity = "zone of inhibition at 40 µg/mL"
observed_measurement = "15 to 16 mm"


The reported measurements were obtained from ChEMBL document CHEMBL4130365.
